tested on: CFA-induced cold hypersensitivity of the hind paw; assay: CFA-induced pain test, cold hypersensitivity (cold plate paw withdrawal latency); assay type: in vivo; details: 1 mg/kg PO, 1-2 hour pre-treatment; cold plate 1° C.; solution in 4% DMSO; 5% Tween-80; 20% Cremophor EL; and 71% water
RECORDED METRIC: PWL Change (s)
Give just the numeric value; s need not be written.

Field: example entries. Status: answers known.
# COMPOUND, RECORDED METRIC, UNIT LABEL, READOUT NUMBER
data = [
    ("Cc1cc(Cn2c(=O)c3c(ncn3[C@@H](C)C(=O)Nc3cncc(-c4cnc(C(F)(F)F)nc4)n3)n(C)c2=O)no1 [Compound 21]", "PWL Change", "s", 94.2),
    ("Cc1noc(Cn2c(=O)c3c(ncn3[C@@H](C)C(=O)Nc3cccc(-c4cnc(C(F)(F)F)nc4)n3)n(C)c2=O)n1 [Compound 104]", "PWL Change", "s", 190.9),
    ("CC(=O)Cn1c(=O)c2c(ncn2[C@@H](C)C(=O)Nc2cccc(-c3cnc(C)c(C(F)(F)F)c3)n2)n(C)c1=O [Compound 97]", "PWL Change", "s", 149.8),
]

# context switch: different compound, same PWL Change
Look up PWL Change for this compound: Cc1noc(Cn2c(=O)c3c(ncn3[C@@H](C)C(=O)Nc3cncc(-c4cnc(C(F)(F)F)nc4)n3)n(C)c2=O)n1 [Compound 160] 161.5
